- Test system: MS2 coat protein
- measurement description: apparent KD of MS2 coat protein, switch OFF state (with FMN for OFF switches, without FMN for ON switches); designed switch direction (-1 OFF switch, 1 ON switch): -1; higher = weaker reporter binding
- run parameters: FMN input: 0 or 200 uM; Eterna round: R93 (includes R88 designs)
observed property: apparent KD of MS2 coat protein
# output: numeric value plus its unit

AAGAAUGGAGGAUAUACAUGAGGAUCACCCAUGUAAAAGAAAGAAAAGGGAAAGAAAAGUAGAAGGCCAAAGAA [Sekhaenre/Akhenre Merenptah Siptah] ... 0.041 µM
UUAGAACAUGAGGAUCACCCAUGUGAGGAUAUGCAAUACUAAAAAAAAGAUAAUUAUAGCAGAAGGCACGUAGU [JR_EXc001_Sub805] ... 0.0414 µM
GUCAGCUGAGGAUAUACAGGUGAUGCCGCAGAACAAAAUAUACAUGAGGAUCACCCAUGUAGAAGGCGGAAGAC [Terian] ... 0.0441 µM
CGUUUGUUAGGAUAUAGCCACAUUACGAAUAAGUAGUGUGGCUAGAAGGAACAUGAGGAUCACCCAUGUAUGGG [Exclusion 4.3 (AU closing FMN)] ... 0.0785 µM
AAAAAGUAAGGAUAUACAAGAGAAAACACAAAAAAAAAAAAACAUGAGGAUCACCCAUGUAGAAGGUACAAAAA [Diamond 82] ... 0.0246 µM

Field: next sequence
Given the sequence AACAGUACAGGAUAUACAUGAGGAUCACCCAUGUGGGUGUUAAGUGGCGUACCACAAAGUAGAAGGGUACUGGA [JL In the Red CG] , what is its reported apparent KD of MS2 coat protein?
0.106 µM

* * *

- Test system: MS2 coat protein
- measurement description: apparent KD of MS2 coat protein; designed switch direction (-1 OFF switch, 1 ON switch): 1; higher = weaker reporter binding
- run parameters: input ligand: microRNA oligo, concentration not stated
Class 1: apparent KD of MS2 coat protein at least 200 nM. Class -1: apparent KD of MS2 coat protein below 200 nM.

Answered examples (5):
UGUUGUAUUACAGGAUAUCUAUUAUUUAUAUUUAGAGAAGGGUAUUCACAUGAGGAUCACCCAUGUAUAUACGAGGAAGUUGUG [JMF's solution 19] (Eterna round: R96, puzzle: Same State NG 1) ... -1
UUUAGAUAGCGAGGAUAUCGCGAGGAUCACCCGUGAGAAGGCGCAGAGCCGAGGAUCACCCGGCUGAUCCUGAGAAGGAGGUCA (Eterna round: R96, puzzle: Same State NG 1) ... -1
GAGUGGUAAAGAGGAUAUGCAUUGUUAUUCACUGCAGAAGGUUUUAACAUGAGGAUCACCCAUGUAGGACUAUUCCUGUGUUUC [Parity 64 - Jieux - Same State NG 1] (Eterna round: R96, puzzle: Same State NG 1) ... -1
GGAGCCGGCCUAGGAUAUUUCAUUUAAAAACAUGAGGAUCACCCAUGUAGGCCAGAAGGCCUUGGGAAGAAGGAGGUCGGCUCC [Loop Effect - U24,U25] (Eterna round: R96, puzzle: Same State NG 2) ... -1
GGAGCCGGCACCGAGGAUAUUCAUAUUAAAACAUGAGGAUCACCCAUGUAGCUCGAAAGAGCUUGGGAGAAGGCGGAUCGGCUCG [Xeonanis - 29] (Eterna round: R96, puzzle: Same State 2) ... 1

Would you say CUGAAAUGUCAAGGAUAUCACGUCGAUUAGACGUGAGAAGGUGAUCUGCACAUGAGGAUCACCCAUGUGUUACAUGGAAUUCAG [Brourd's SSNG1/1-A2 mod 13] (Eterna round: R96, puzzle: Same State NG 1) shows apparent KD of MS2 coat protein at minimum 200 nM?
1

Please indicate if the recorded apparent KD of MS2 coat protein for GAGGAGGAUACAGGAUAUAUACAUGAGGAUCACACAUACAUGACAUGAGGAUCACCCAUGUUUGUAUAGAAGGGUAAGAGGAGG [Seems to be working] (Eterna round: R96, puzzle: Same State NG 2) meets or exceeds 200 nM.
-1

Test whether the sequence GCGGAACCUGACAUGAGGAUCACCCAUGUUCCGGAAACGGCACAGGAUAUCUGUCCGAAAAGGUCAGAGAAGGGUGGAAACCGC [Fiskers NG3ss - 98] (Eterna round: R96, puzzle: Same State NG 3) records apparent KD of MS2 coat protein of 200 nM or higher.
-1

* * *

Recorded apparent KD of MS2 coat protein for the following sequences
- System: MS2 coat protein
- measurement description: apparent KD of MS2 coat protein; designed switch direction (-1 OFF switch, 1 ON switch): 1; higher = weaker reporter binding
- run parameters: Eterna round: R95; input ligand: microRNA oligo, concentration not stated
In your response, put the unit directly after the numeric value.

UACAAUCUAUCUGAGGAUAUCAUGAAAAAAACAUGAGGAUCACCCAUGUGCAGGAAAACUGCAUAUGAGAAGGCAGAUAGAUUGU [salish99_SS2_r3_006] (puzzle: Same State 2) ... 971 nM

So what does the record say about apparent KD of MS2 coat protein for UUUAGUUGCGGGCAGGAUAUGUAUUAAAAUACAUGAGGAUCACCCAUGUGAGAUCAUAAAGAUCUACAGAAGGGCCAAUCGCGAC [Laonerce - 18] (puzzle: Same State 2) ?
69.4 nM

// returns reported apparent KD of MS2 coat protein for input CAGCGCUGUCGAGAGGAUAUGCGGUGAUGGACAUGAGGAUCACCCAUGUUAGCGACAGCAUCACGGCAGAAGGCUCUACCGCUGG [Soteed Omei mod 42] (puzzle: Same State 2)
9.78 nM

Endpoint output: apparent KD of MS2 coat protein of AGCUAUCGAAAACGAUAGCAAAAGCAUGUACAUGAGGAUCACCCAUGUCAUGUACAAGCUUUUUGCUCGUCUUGAAA [Zipper 23 - 9] (puzzle: Sensor for hsa-mir-208a) . Value?
13 nM

Report apparent KD of MS2 coat protein for UUUGGGUGGCUGGAGGAUAUUCUUGUGGUUACAUGAGGAUCACCCAUGUGUCGCGCGGUACGCGAGGAGAAGGCUGGCGGCCGUU (puzzle: Same State 2) please.
223 nM

* * *

# apparent KD of MS2 coat protein per record follows
- Tested on: MS2 coat protein
- measurement description: apparent KD of MS2 coat protein; designed switch direction (-1 OFF switch, 1 ON switch): -1; higher = weaker reporter binding
- run parameters: Eterna round: R95; input ligand: microRNA oligo, concentration not stated

AAGAAACAUGAGGAUCACCCAUGUGAGGAUAUGACCAAGAAAAGAAAAGAAAGAAGAUUCAGAAGGCACAAAGG [salish99-ex1_r3_060] (puzzle: Exclusion 1) ... 29.9 nM
UAGUGGUUACGUUGGAGUUGUAUGAGCGGAGGCUCUGUGACAUGAGGAUCACCCAUGUAGCUUUUUGCUCGUCUUAA [JR_SV3TOV2_Sub039] (puzzle: Sensor v3, turn-off variant 2) ... 41.5 nM
AGUGCUGGCGCGUCGGUGUUGGUGCAAUAAGCUUGUGAAACAUGAGGAUCACCCAUGUCCUCAUAAGCUCGUCUUAU [salish99_TOv2_r2_085] (puzzle: Sensor v3, turn-off variant 2) ... 732 nM

Kindly state the measured apparent KD of MS2 coat protein obtained for GAAAAGGUAGGAUAUACGAUAAUAAAGGGUAGAUAAUAAACACAUGAGGAUCACCCAUGUAGAAGGACCAAAAG [salish99_ex2_r3_103] (puzzle: Exclusion 2) with MS2 coat protein.
35 nM

Please tell me: apparent KD of MS2 coat protein of AAUCCACAUGAGGAUCACCCAUGUGAGGAUAUGAUACUAUGUACUUCGGUACAUAGUAUCAGAAGGCACGGAUC [Ex1-3: 53] (puzzle: Exclusion 1) , system MS2 coat protein?
29.9 nM

* * *

- Test system: K4 kissing-loop RNA reporter;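 also: bound reporter read as fluorescence of individual clusters on recovered sequencing chips by microscopy, with normalized cluster intensities fitted with a binding model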
- measurement description: apparent KD of K4 kissing-loop reporter; higher = weaker reporter binding
- run parameters: Eterna round: R107; input ligand: FMN 200 uM
The following sequences are shown together with reported apparent KD of K4 kissing-loop reporter values.
# output: bare number, implied unit µM

UUUAUAUAGUCGGCCGCCACUGAUUUUUUUAUAUGUUUAUGUUUAUACGAGUGAUGUUCGAUAUACAGGACCGGGACUUUUGUUA [JR_SSTryptoB_Sub018] ... 0.186
CGAGUGAUGUUCGUUCGUUUAUUUCGUUGACAGGAUAUGCGGAAACGCAGAAGGGUCACCUUUGAGUUAACGGAAUUUACGUUAU [Ex FMN A 27] ... 0.614

Next, consider the following sequence.
Name the recorded apparent KD of K4 kissing-loop reporter for AGAGUUAUGCGAGGAUAUGCAGUUAGUACUCAAAGAGUACUAACGCAGAGUGAUGUUCUGUGAAACGCAGAAGGUGCAUAACUCA [Omei KL FMN B SS B v4] .
0.161
